- tgt: GAL4 DBD (1-147)-CfEcR(DEF)/VP16AD-βRXREF-LmUSPEF (Choristoneura fumiferana)
- Construct: The wild-type D, E, and F domains from spruce budworm Choristoneura fumiferana EcR (“CfEcR-DEF”)
- method.notes: 27-63 Assay (luciferase reporter gene assay in stably transfected CHO cell clone)
- Type: cell-based
attribute.measured: pEC50
By convention, pEC50 is the negative base-10 log of a molar concentration.

Use these answered entries as a reference point.
compound="C=CCC(C)(C)C(CCCC)N(NC(=O)c1cccc(OC)c1C)C(=O)c1cc(C)cc(C)c1 (stereo not shown)" tgt="GAL4 DBD (1-147)-CfEcR(DEF)/VP16AD-βRXREF-LmUSPEF (Choristoneura fumiferana)" reported_value=7.00
compound="CCCCCCC(N(NC(=O)c1cccc(OC)c1C)C(=O)c1cc(OC)c(C)c(OC)c1)C(C)(C)C (stereo not shown)" tgt="GAL4 DBD (1-147)-CfEcR(DEF)/VP16AD-βRXREF-LmUSPEF (Choristoneura fumiferana)" reported_value=6.70
compound="CCCCCCC(N(NC(=O)c1ccc(CC)cc1)C(=O)c1cc(C)cc(C)c1)C(C)(C)C (stereo not shown)" tgt="GAL4 DBD (1-147)-CfEcR(DEF)/VP16AD-βRXREF-LmUSPEF (Choristoneura fumiferana)" reported_value=6.07

[in] Looking for the measured pEC50 of CCCCCCC(N(NC(=O)c1ccc(CC)cc1)C(=O)c1cc(OC)c(C)c(OC)c1)C(C)(C)C (stereo not shown) , can you help?
[out] 5.91

[in] Looking for the measured pEC50 of Cc1cc(C)cc(C(=O)N(NC(=O)c2ccc3c(c2C)O[C@@H](C=NNC(N)=O)CO3)C(C)(C)C)c1 , can you help?
[out] 5.48

[in] Looking for the measured pEC50 of CCc1c(OC)cccc1C(=O)NN(C(=O)c1cc(C)cc(C)c1)C(C)(C)C [GS ™-E ligand, reference compound] , can you help?
[out] 6.54
